System: A549 cells
Assay: Cytotoxicity assay (AlamarBlue)
Conditions: read-out: CC50 (μM), cytotoxic concentration 50%; A549 cell line, 48 h
RESULT_TYPE: CC50 (µM)
Express it in µM; write the number only.

O=C(NCc1ccc(Cl)cc1Cl)c1cc(Cl)ccc1O: 30.9

Query string: Find CC50 (A549 cells) for the entry O=C(NCc1ccc([N+](=O)[O-])cc1)c1cc(Cl)ccc1O
Result string: 175

Query string: Same read-out for CC(C)(C)OC(=O)N1CCC(Nc2ccc(NC(=O)c3cc(Cl)ccc3O)c(Cl)c2)CC1 ?
Result string: 100

Query string: One more molecule: O=C(Nc1ccc(NCc2cc(C(F)(F)F)cc(C(F)(F)F)c2)cc1Cl)c1cc(Cl)ccc1O
Result string: 92.8

Query string: Then this molecule: CC[C@@H](C)[C@H](NC(=O)c1cc(Cl)ccc1O)C(=O)Nc1ccc([N+](=O)[O-])cc1Cl
Result string: 20.2

Query string: And what about the molecule O=C(Nc1ccc([N+](=O)[O-])cc1F)c1cc(Cl)ccc1O ?
Result string: 10.9

Query string: Another molecule to look at: O=C(Nc1ccc(NCc2cc(Cl)cc(Cl)c2)cc1Cl)c1cc(Cl)ccc1O
Result string: 13.3

Query string: Follow-up entry: C[C@H](NC(=O)c1cc(Cl)ccc1O)c1ccccc1
Result string: 199

Query string: # iterate: CC(CCO)Nc1ccc(NC(=O)c2cc(Cl)ccc2O)c(Cl)c1 (stereo not drawn)
Result string: 200

Query string: Note, next up: CN(C)c1ccc(CNc2ccc(NC(=O)c3cc(Cl)ccc3O)c(Cl)c2)cc1
Result string: 24.5

----------
System: HAdV
Experiment: Combination study (Chou-Talalay, CalcuSyn) in plaque assay
Assay type: cell-based
Conditions: derivative alone, read-out: IC50 Single
RESULT_TYPE: IC50 (nM)
Dear colleague, please return just the value in nM, with no unit written.

Illustrative cases are given below, each with its answer.
CC(C)[C@H](NC(=O)c1cc(Cl)ccc1O)C(=O)Nc1ccc([N+](=O)[O-])cc1Cl [Compound 58]: 450
CC1(Nc2ccc(NC(=O)c3cc(Cl)ccc3O)c(Cl)c2)CCCC1 [Compound 87]: 270

In the following, a different compound is considered.
Query string: Lookup: IC50 / HAdV / O=C(Nc1cc(F)cc(C(F)(F)F)c1)c1cc(Cl)ccc1O [Compound 17]
Result string: 180

----------
System: A549 cells
Experiment: Cytotoxicity assay (AlamarBlue)
Conditions: read-out: CC50 (μM), cytotoxic concentration 50%; A549 cell line, 48 h
Description: Cytotoxicity Assay. The cytotoxicity of the compounds was analyzed by commercial kit AlamarBlue® (Invitrogen, Ref. DAL1025). A549 cells at a density of 5×10^3 cells per well in 96-well plates were seeded. […] Cells were then incubated at 37° C. for 48 h following the kit protocol. The cytotoxic concentration 50 (CC50) value was obtained using the statistical package GraphPad Prism. This assay was performed in duplicate.
Readings of CC50 for the listed compounds
Reply with just the number (in µM).

O=C(Nc1ccc(NC2CCCC2)cc1)c1cc(Cl)ccc1O [Compound 141]: 10
CC(C)(Cc1ccccc1)ON(c1ccc(NC(=O)c2cc(Cl)ccc2O)c(Cl)c1)C(C)(C)Cc1ccccc1 [Compound 115]: 165

Query string: Please tell me: CC50 of CC(C)[C@H](NC(=O)c1cc(Cl)ccc1O)C(=O)Nc1ccc(F)c(F)c1 [Compound 68] , system A549 cells?
Result string: 95

Query string: Could you do the same for O=C(Nc1cc(C(F)(F)F)cc(C(F)(F)F)c1)c1cc(Cl)ccc1O [Compound 16] , please?
Result string: 4.1

Query string: What would you report for O=C(Nc1ccc(NCc2cccc(Br)n2)cc1Cl)c1cc(Cl)ccc1O [Compound 111] ?
Result string: 92.3

Query string: CCCCCCC(C)Nc1ccc(NC(=O)c2cc(Cl)ccc2O)c(Cl)c1 (centres unmarked) [Compound 83] , same question.
Result string: 23.5

Query string: How about this compound: O=C(NCc1ccc(NC2CCCC2)cc1Cl)c1cc(Cl)ccc1O [Compound 145]
Result string: 28.3

Query string: Okay, and O=C(Nc1ccc(NC2CCCC2)cc1Cl)c1cc(Cl)ccc1O [Compound 78] ?
Result string: 92.9

Query string: Could you do the same for O=C(Nc1cc(F)cc(C(F)(F)F)c1)c1ccc(Cl)cc1O [Compound 20] , please?
Result string: 20.6

Query string: Then this compound: O=C(NCc1ccc([N+](=O)[O-])cc1Cl)c1cc(Cl)ccc1O [Compound 30]
Result string: 51.4

Query string: Same thing, different compound: O=C(Nc1ccc(NCc2cccnc2Cl)cc1Cl)c1cc(Cl)ccc1O [Compound 109]
Result string: 100
